# protocolSummary: Solubility in 20 mM acetic, citric and L-aspartic aqueous media as a function of pH (Example 14)
# Format: physicochemical
# studyConditions: 22 °C, aqueous buffer, thermodynamic from solid; 20 mM L-aspartic acid media, pH 4.54, 22 ± 1° C., Compound A in excess; read-out: Solubility

molecule: CCn1nc(C)cc1C(=O)Nc1nc2cc(C(N)=O)cc(OC)c2n1C/C=C/Cn1c(NC(=O)c2cc(C)nn2CC)nc2cc(C(N)=O)cc(OCCCN3CCOCC3)c21 [Compound A]
solubility / µg/mL: 16.7

* * *

# protocolSummary: Solubility in 20 mM acetic, citric and L-aspartic aqueous media as a function of pH (Example 14)
# Assay type: physicochemical
# studyConditions: 22 °C, aqueous buffer, thermodynamic from solid; 20 mM citric acid media, pH 4.94, 22 ± 1° C., Compound A in excess; read-out: Solubility
recordedMetric: solubility (µg/mL)

substanceSmiles: CCn1nc(C)cc1C(=O)Nc1nc2cc(C(N)=O)cc(OC)c2n1C/C=C/Cn1c(NC(=O)c2cc(C)nn2CC)nc2cc(C(N)=O)cc(OCCCN3CCOCC3)c21
recordedMetric: solubility
unitString: µg/mL
observedResult: 4

* * *

# protocolSummary: Solubility in 20 mM acetic, citric and L-aspartic aqueous media as a function of pH (Example 14)
# Assay type: physicochemical
# studyConditions: 20 mM acetic acid aqueous media, 22 °C, aqueous buffer, thermodynamic from solid; 20 mM acetic acid media, pH 9.84, 22 ± 1° C., Compound A in excess; read-out: Solubility

substanceSmiles: CCn1nc(C)cc1C(=O)Nc1nc2cc(C(N)=O)cc(OC)c2n1C/C=C/Cn1c(NC(=O)c2cc(C)nn2CC)nc2cc(C(N)=O)cc(OCCCN3CCOCC3)c21
solubility / µg/mL: 0.5

* * *

# protocolSummary: Solubility screening up to 2 mg/mL at RT in aqueous acid media (Examples 7 to 13)
# Format: physicochemical
# studyConditions: 10 mM methane sulfonic acid aqueous medium, pH 1.99, aqueous buffer, thermodynamic from solid, 10 mM Methane sulfonic acid, solution pH 1.99, stirred 24 h, target up to 2 mg/mL; read-out: Drug Solubility
recordedMetric: solubility at 24 h

substanceSmiles: CCn1nc(C)cc1C(=O)Nc1nc2cc(C(N)=O)cc(OC)c2n1C/C=C/Cn1c(NC(=O)c2cc(C)nn2CC)nc2cc(C(N)=O)cc(OCCCN3CCOCC3)c21
observedResult: > 1000 µg/mL

* * *

# protocolSummary: Solubility in 20 mM acetic, citric and L-aspartic aqueous media as a function of pH (Example 14)
# Type: physicochemical
# studyConditions: 22 °C, aqueous buffer, thermodynamic from solid; 20 mM acetic acid media, pH 3.71, 22 ± 1° C., Compound A in excess; read-out: Solubility

compound: CCn1nc(C)cc1C(=O)Nc1nc2cc(C(N)=O)cc(OC)c2n1C/C=C/Cn1c(NC(=O)c2cc(C)nn2CC)nc2cc(C(N)=O)cc(OCCCN3CCOCC3)c21 [Compound A]
solubility / mg/mL: 0.81

* * *

# protocolSummary: Solubility in 20 mM acetic, citric and L-aspartic aqueous media as a function of pH (Example 14)
# Type: physicochemical
# studyConditions: 20 mM acetic, citric or L-aspartic acid aqueous media, aqueous buffer; at pH 4.0, any of the counter ions (L-aspartic, acetic, citric acid); read-out: Solubility
recordedMetric: solubility

substanceSmiles: CCn1nc(C)cc1C(=O)Nc1nc2cc(C(N)=O)cc(OC)c2n1C/C=C/Cn1c(NC(=O)c2cc(C)nn2CC)nc2cc(C(N)=O)cc(OCCCN3CCOCC3)c21
observedResult: ≤ 500 µg/mL

* * *

# protocolSummary: Aqueous solubility with glutamic acid and glucuronic acid (Example 15)
# Type: physicochemical
# studyConditions: aqueous glutamic acid (1 mol eq), aqueous buffer, thermodynamic from solid, Glutamic acid (1 mol eq), adjusted pH 4.1, filtered supernatant

substanceSmiles: CCn1nc(C)cc1C(=O)Nc1nc2cc(C(N)=O)cc(OC)c2n1C/C=C/Cn1c(NC(=O)c2cc(C)nn2CC)nc2cc(C(N)=O)cc(OCCCN3CCOCC3)c21
solubility [µg/mL]: 4500

* * *

# protocolSummary: Solubility in 20 mM acetic, citric and L-aspartic aqueous media as a function of pH (Example 14)
# Format: physicochemical
# studyConditions: 22 °C, aqueous buffer, thermodynamic from solid; 20 mM acetic acid media, pH 4.85, 22 ± 1° C., Compound A in excess; read-out: Solubility

substanceSmiles: CCn1nc(C)cc1C(=O)Nc1nc2cc(C(N)=O)cc(OC)c2n1C/C=C/Cn1c(NC(=O)c2cc(C)nn2CC)nc2cc(C(N)=O)cc(OCCCN3CCOCC3)c21
solubility / µg/mL: 10.8

* * *

# protocolSummary: Solubility screening up to 2 mg/mL at RT in aqueous acid media (Examples 7 to 13)
# Assay type: physicochemical
# studyConditions: 25 mM lactic acid aqueous medium, pH 2.57, aqueous buffer, thermodynamic from solid, 25 mM Lactic acid, solution pH 2.57, stirred 24 h, target up to 2 mg/mL; read-out: Drug Solubility
recordedMetric: solubility at 24 h

compound: CCn1nc(C)cc1C(=O)Nc1nc2cc(C(N)=O)cc(OC)c2n1C/C=C/Cn1c(NC(=O)c2cc(C)nn2CC)nc2cc(C(N)=O)cc(OCCCN3CCOCC3)c21 [Compound A]
observedResult: > 1000 µg/mL

* * *

# protocolSummary: Solubility in 20 mM acetic, citric and L-aspartic aqueous media as a function of pH (Example 14)
# Format: physicochemical
# studyConditions: 22 °C, aqueous buffer, thermodynamic from solid; 20 mM citric acid media, pH 2.74, 22 ± 1° C., Compound A in excess; read-out: Solubility

substanceSmiles: CCn1nc(C)cc1C(=O)Nc1nc2cc(C(N)=O)cc(OC)c2n1C/C=C/Cn1c(NC(=O)c2cc(C)nn2CC)nc2cc(C(N)=O)cc(OCCCN3CCOCC3)c21
solubility: 81.6 µg/mL

* * *

# protocolSummary: Solubility screening up to 2 mg/mL at RT in aqueous acid media (Examples 7 to 13)
# Type: physicochemical
# studyConditions: 25 mM citric acid aqueous medium, pH 2.32, aqueous buffer, thermodynamic from solid, 25 mM Citric acid, solution pH 2.32, stirred 24 h, target up to 2 mg/mL; read-out: Drug Solubility
recordedMetric: solubility at 24 h

substanceSmiles: CCn1nc(C)cc1C(=O)Nc1nc2cc(C(N)=O)cc(OC)c2n1C/C=C/Cn1c(NC(=O)c2cc(C)nn2CC)nc2cc(C(N)=O)cc(OCCCN3CCOCC3)c21
recordedMetric: solubility at 24 h
observedResult: > 1000 µg/mL

* * *

# protocolSummary: Solubility in 20 mM acetic, citric and L-aspartic aqueous media as a function of pH (Example 14)
# Type: physicochemical
# studyConditions: 20 mM acetic acid aqueous media, 22 °C, aqueous buffer, thermodynamic from solid; 20 mM acetic acid media, pH 6.42, 22 ± 1° C., Compound A in excess; read-out: Solubility
recordedMetric: solubility (µg/mL)

compound: CCn1nc(C)cc1C(=O)Nc1nc2cc(C(N)=O)cc(OC)c2n1C/C=C/Cn1c(NC(=O)c2cc(C)nn2CC)nc2cc(C(N)=O)cc(OCCCN3CCOCC3)c21 [Compound A]
unitString: µg/mL
observedResult: 0.5

* * *

# protocolSummary: Solubility in 20 mM acetic, citric and L-aspartic aqueous media as a function of pH (Example 14)
# Format: physicochemical
# studyConditions: 22 °C, aqueous buffer, thermodynamic from solid; 20 mM L-aspartic acid media, pH 4.18, 22 ± 1° C., Compound A in excess; read-out: Solubility
recordedMetric: solubility (mg/mL)

substanceSmiles: CCn1nc(C)cc1C(=O)Nc1nc2cc(C(N)=O)cc(OC)c2n1C/C=C/Cn1c(NC(=O)c2cc(C)nn2CC)nc2cc(C(N)=O)cc(OCCCN3CCOCC3)c21
unitString: mg/mL
observedResult: 0.0687

* * *

# protocolSummary: Solubility in 20 mM acetic, citric and L-aspartic aqueous media as a function of pH (Example 14)
# Type: physicochemical
# studyConditions: 20 mM L-aspartic acid aqueous media, 22 °C, aqueous buffer, thermodynamic from solid; 20 mM L-aspartic acid media, pH 7.97, 22 ± 1° C., Compound A in excess; read-out: Solubility
recordedMetric: solubility (µg/mL)

compound: CCn1nc(C)cc1C(=O)Nc1nc2cc(C(N)=O)cc(OC)c2n1C/C=C/Cn1c(NC(=O)c2cc(C)nn2CC)nc2cc(C(N)=O)cc(OCCCN3CCOCC3)c21 [Compound A]
unitString: µg/mL
observedResult: 0.5

* * *

# protocolSummary: Solubility screening up to 5 mg/mL at RT in aqueous acid media (Examples 1 to 6)
# Format: physicochemical
# studyConditions: 9.5 mM lactic acid aqueous medium, pH 3.83, aqueous buffer, thermodynamic from solid, 9.5 mM Lactic acid, solution pH 3.83, stirred 24 h at RT, free base; read-out: Drug Solubility

substanceSmiles: CCn1nc(C)cc1C(=O)Nc1nc2cc(C(N)=O)cc(OC)c2n1C/C=C/Cn1c(NC(=O)c2cc(C)nn2CC)nc2cc(C(N)=O)cc(OCCCN3CCOCC3)c21
solubility at 24 h: > 3500 µg/mL
